Target: T1, sortilin protein with a C-terminal 6×His-tag (Homo sapiens (Human), UniProt Q99523 78-755, directly conjugated with d2 in assay format #3 (site not stated); unlabeled and detected with d2-labeled 1C12 in assay format #10)
T1 construct: Soluble sortilin of the HTRF assays; also called sortilin-d2; Tb-conjugated sortilin protein
T1 sequence: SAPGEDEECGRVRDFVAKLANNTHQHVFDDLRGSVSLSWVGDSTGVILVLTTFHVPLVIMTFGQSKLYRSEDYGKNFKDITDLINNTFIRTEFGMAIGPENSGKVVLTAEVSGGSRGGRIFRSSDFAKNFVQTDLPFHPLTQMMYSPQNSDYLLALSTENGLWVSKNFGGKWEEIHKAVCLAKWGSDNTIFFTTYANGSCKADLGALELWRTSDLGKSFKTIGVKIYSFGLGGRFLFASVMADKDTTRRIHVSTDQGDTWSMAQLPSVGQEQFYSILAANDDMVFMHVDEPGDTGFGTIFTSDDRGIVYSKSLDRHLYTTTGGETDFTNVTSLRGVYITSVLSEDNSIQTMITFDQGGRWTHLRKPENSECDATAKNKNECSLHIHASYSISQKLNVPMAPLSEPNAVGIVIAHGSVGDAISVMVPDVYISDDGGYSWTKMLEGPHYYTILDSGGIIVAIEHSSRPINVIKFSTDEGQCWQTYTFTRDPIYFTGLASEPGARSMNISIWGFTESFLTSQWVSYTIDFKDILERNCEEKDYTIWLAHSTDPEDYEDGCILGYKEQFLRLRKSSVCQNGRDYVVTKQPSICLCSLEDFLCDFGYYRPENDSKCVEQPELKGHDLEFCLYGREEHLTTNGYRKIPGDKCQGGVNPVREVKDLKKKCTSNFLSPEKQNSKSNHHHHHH
Experiment: HTRF, assay format #10: sortilin at 9 nM, anti-sortilin 1C12 at 20 ng/well, SA-Tb at 0.33 nM; assay format #10: sortilin detected with anti-sortilin 1C12 antibody, SA-Tb
No end group written: not given here. *: point of attachment. Biotin = O=C1N[C@H]2[C@H](CS[C@H]2CCCCC(=O)*)N1
metric name: pKd
Scale note: pKd = -log10(concentration in M).

-- ask So what's the measured pKd for this one? Biotin-TKCLRREAPRWDAPLRDPALRQLL (Detected through streptavidin-Tb in formats #3, #6 and #10; also called 24 amino acid-sized C-terminal peptide of PGRN; biotinylated peptide) [biotinylated PGRN peptide]
-- reply 8.80
